Measured self-cleavage, listed per entry for reference.
B1: CPEB3 Ribozyme (parent)
chain: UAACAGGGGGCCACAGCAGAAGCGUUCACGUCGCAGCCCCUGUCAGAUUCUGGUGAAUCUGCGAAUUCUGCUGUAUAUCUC

# Variants of: B1
# Test Details: self-cleavage, relative activity (ratio to wild type); higher = more cleavage; in vitro, sequencing
Enter the number alone.

Record excerpt, results attached:
G52A A75G : 0.99
G30C U49C : 0.08
A13G C23G : 0.46
A57G U58G : 0.22
C37G U72A : 0.92

# lookup: self-cleavage of A15G G19U
0.28

Next up: U1A U54C
1.08

Next up: U58C C71A
0.37

Next up: U31C U80C
0.96

Next up: A45G C68U
0.88

Next up: G24U U76A
0.4

// data source = the RNAGym collection of RNA variant scans (doi:10.1093/nar/gkz1192)
